System under test: T1, Monomeric hAng-2FD (human, UniProt O15123 282-496)
T1 construct: also called fibrinogen-like domain of human Ang2; Human Ang-2FD
T1 sequence: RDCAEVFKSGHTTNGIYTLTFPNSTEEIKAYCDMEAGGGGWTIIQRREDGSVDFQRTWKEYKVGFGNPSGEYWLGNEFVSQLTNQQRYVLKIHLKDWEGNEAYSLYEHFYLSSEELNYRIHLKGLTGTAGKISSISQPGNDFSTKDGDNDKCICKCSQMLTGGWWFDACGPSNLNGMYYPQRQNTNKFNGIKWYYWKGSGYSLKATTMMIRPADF
Experimental details: SPR, captured Ab
Property measured: pKd
Conceptually, pKd converts a concentration in mol/L into minus its log10.

Below: 2 binders and their reported pKd.
Binder	pKd
H1H693P (antibody, V domains shown) VH: EVQLVESGGGLVQPGESLRLSCAASGFTFSSYAMSWVRQGPGKGLEWVSSISGSGGTTYYADSVEGRFTISRDNSKNTLYLHMNSLRAEDTAVYYCAKDFLDYSTYLAFDLWGQGTMVTVSS VL: DIQMTQSPSSVSASVGDRVTITCRASQGISSWLAWYQQKPGKAPKLLIYAASSLQSGVPSRFSGSGSGTDFTLTISSLQPEDFATYYCQQANSFPRTFGQGTKVEIK	7.35
H2M743N (antibody, V domains shown) VH: EVQLLESGGGLVQPGGSLRLSCAASGFTFRKYAMSWVRQAPGKGLEWVSVISVSGGNTYYADSVKGRFTISRDNSKNTLYLQLNSLRAEDTAVYYCAKDLTDIVLMVYVDYWGQGTLVTVSS VL: DIQMTQSPSSVSASVGDRVTITCRASQDIDRWLAWYQQKPGKAPKLLIYAASSLQSGVPSRFSGSGSGTDFTLTISTLQPEDFATYYCQQANSLPFTFGGGTKVEIK	9.40

Continue with the next binder.
Name the recorded pKd of the binder listed here: H1H695P (antibody, V domains shown) VH: QVQLVESGGGVVQPGRSLRLSCAASGFTFSSYGMHWVRQAPGKGLEWVAVMWYDETNKYYADSVKGRFTISRDNSKNTLYLQMNSLRAEDTAVYYCARYSGYEDYYHGMDVWGQGTTVTVS VL: EIVMTQSPATPSVSPGERATLSCRASQSISSNLAWYQQKPGQAPRLLIYGASTRATGIPARFSGSGSGTEFTLTISSLQSEDFAVYYCQHYNNWITFGQGTRLEIK
8.95
